target: YU2 gp120, soluble monomer (HIV-1 isolate YU2 (clade B), UniProt P35961 32-498); experiment: BLI
readout: pKd
FYI, pKd means -log10 of a concentration in mol per litre.

Illustrative cases are given below, each with its answer.
Indicate the recorded pKd value for this binder: GEBT414, mature IgG (antibody, V domains shown) VH: EVQLVQSGAEVKRPGESLRISCKTSGYSFTGSWISWVRQMPGKGLDWMGNIYPGDSDTRYNPSFQGHVTISADKSISTTYLQWSSLKASDTATYYCAKGGGITIFGLLHYPLDSWGQGVVVTVSS VL: DIQMTQSPSSLSASVGDTVTITCRASQGINNWLAWYQQKPGKAPKLLIYKASSLQSGVPSRFSGSGSGTDFTLTISSLQSEDFATYYCQQYNSGPLTFGGGTKVEIK
7.62

Indicate the recorded pKd value for this binder: GEBT412, inferred germline (igL) reverted IgG (antibody, V domains shown) VH: QVQLVESGGGLVQPGGSLRLSCAASGFTFSSYGMHWVRQAPGKGLEWVAVIWYDGSKKYYADSVKDRFTISRDNSKNMLYLQMNNLKLEDTAVYYCARRGCTGSGCYLYYYGLDSWGQGVVVTVSS VL: DIQMTQSPSSLSASVGDTVTITCRASQGISSYLNWFQQKPGKAPKLLIYAASSLESGVPSRFSGSGSGTEFTLTISSLQPEDFATYYCLQHNFYPYSFGQGTKVEIK
6.98

Let us move to another entry and its pKd.
Indicate the recorded pKd value for this binder: GEBT414, inferred germline (igL) reverted IgG (antibody, V domains shown) VH: EVQLVQSGAEVKRPGESLRISCKTSGYSFTGSWISWVRQMPGKGLEWMGSIYPGDSDTRYNPSFQGHVTISADKSISTTYLQWSSLKASDTATYYCAKGGGITIFGLLHYPLDSWGQGVVVTVSS VL: DIQMTQSPASLSASVGDRVTITCQASQGISSWLAWYQQKPGKAPKLLLYKAPGLQSGVPSMFSGSGSGTEFTLTISSLQPEDFATYYCQQYNSGPLTFGGGTKVEIK
7.20
